# protocol-text: qHTS Assay for Lipid Storage Modulators (AID 1519)
# condition-notes: Drosophila S3 cells, BODIPY lipid droplet/cell ratio, laser cytometry; measured here: lipid channel max response; cells loaded with oleic acid
Inconclusive results are not listed.

{"compound": "O=c1cc(-c2ccccc2)oc2cc(O)c(O)c(O)c12", "max response, %": -4.95}
{"compound": "O=C(O)CCc1nc(-c2ccccc2)c(-c2ccccc2)o1", "max response, %": 2.18}
{"compound": "CC(C)OC(=O)C(C)(C)Oc1ccc(C(=O)c2ccc(Cl)cc2)cc1", "max response, %": -14.8}
{"compound": "COc1ccc(-c2coc3cc(O)ccc3c2=O)cc1", "max response, %": 2.76}
{"compound": "NCCS", "max response, %": -9.57}
{"compound": "CC(C)NCC(O)COc1cccc2[nH]ccc12 (stereo unspecified)", "max response, %": 13.4}
{"compound": "Nc1ncnc2c1ncn2[C@@H]1O[C@@H](CO)[C@H](O)[C@H]1O", "max response, %": -9.07}
{"compound": "O=C(O)c1cc(O)c2c(c1)C(=O)c1cccc(O)c1C2=O", "max response, %": 21.8}
{"compound": "c1ccc2c(Cc3c[nH]c4ccccc34)c[nH]c2c1", "max response, %": 20.3}
{"compound": "CC(C)[C@H](CO)Nc1nc(Nc2ccc(C(=O)O)c(Cl)c2)c2ncn(C(C)C)c2n1", "max response, %": 19.1}
{"compound": "COc1ccc(C2Sc3ccccc3N(CCN(C)C)C(=O)C2OC(C)=O)cc1 (stereo unspecified)", "max response, %": 23.3}
{"compound": "C[C@@H](O)[C@H]1C(=O)N2C(C(=O)O)=C(S[C@@H]3CN[C@H](C(=O)N(C)C)C3)[C@H](C)[C@H]12", "max response, %": -5.75}
{"compound": "CN(C)CCC(c1ccccc1)c1ccccn1 (stereo unspecified)", "max response, %": 33.1}
{"compound": "CCCNC(=O)NS(=O)(=O)c1ccc(Cl)cc1", "max response, %": 7.5}
{"compound": "CC/C(=C(\\c1ccccc1)c1ccc(OCCN(C)C)cc1)c1ccccc1", "max response, %": 15.3}
{"compound": "COCCCCC(=NOCCN)c1ccc(C(F)(F)F)cc1", "max response, %": 5.1}
